Test: Cytotoxicity against human A549 cells assessed as decrease in cell viability after 72 hrs by MTT assay
Type: toxicity, cell-based
metric-name: IC50 at 72 h (µM)
Give just the numeric value; µM need not be written.

>  <cpd-smiles>
C/C(CCC(=O)Nc1ccc(Cl)cc1)=N\NC(=O)c1ccc(-n2cccc2)cc1

>  <IC50 at 72 h [µM]>
406

$$$$

I'd like to know its IC50 at 72 h. The compound in question is `C/C(CCC(=O)Nc1ccc(F)cc1)=N\NC(=O)c1ccc(-n2cccc2)cc1`
438

I'd like to know its IC50 at 72 h. The compound in question is `C/C(=N\NC(=O)c1ccc(-n2cccc2)cc1)C(=O)Nc1ccc(Br)cc1`
441
